test: small molecules captured by biotinylated probe aFGF10 – biochemical, small-molecule microarray, fluorescence 635/667, stem cell growth factor project, primary screen (AID 1071);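 note: score merges 667 nm spot intensity and signal to noise from triplicate slides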
assaySetup: higher = more signal
Entries and their measured composite z-score follow.

Reference set (5 entries):
givenSmiles: COC(=O)[C@@]1(Cc2ccc(OC)cc2)[C@H]2c3cc(C(=O)N4CCCC4)n(CCF)c3C[C@H]2CN1C(=O)c1ccccc1
composite z-score: 1.44
--
givenSmiles: C=CCOC(=O)[C@@H]1[C@H]2C(=O)O[C@H](c3ccccc3)[C@H](c3ccccc3)N2[C@H](c2ccc(OCCOC(=O)[C@H]3C[C@H]4C(=O)N[C@@H](Cc5ccccc5)C(=O)N4[C@H]3c3cccc(OCCO)c3)cc2)[C@@]12C(=O)Nc1ccc(I)cc12
composite z-score: 0.957
--
givenSmiles: COc1ccc(C(=O)Nc2ccc(CN3C(=O)[C@]4(O[C@H](CCn5cc([C@H](O)c6ccccc6)nn5)[C@@H]([Si](C)(C)c5ccc(OC)cc5)[C@@H]4C)c4ccccc43)cc2)cc1
composite z-score: -0.161
--
givenSmiles: CCCC=C(CCC)[C@@H](NC(=O)Cc1ccccc1)c1ccc(C(=O)OC)cc1
composite z-score: 0.536
--
givenSmiles: C=CCN1C(=O)[C@@]2(O[C@@H](CCO)[C@H]([Si](C)(C)c3ccc(OC)cc3)[C@H]2C)c2cc(NC(=O)[C@H](C)O)ccc21
composite z-score: 1.03

Kindly review the next compound as well.
# input State, in one line, measured composite z-score of `COCC(=C=CC[C@@H](O)c1ccccc1OCCO)C[C@@H](O)c1ccccn1`
# output 0.159
